experiment: Binding affinity to Hsp90 after 4 hrs by GM-FITC based fluorescence polarization assay
pIC50: −log10 of the molar value.
Below, each of the compounds is paired with its reported pIC50 value.
measured-metric: pIC50

# mol-smiles, observed-result
records = [
    ("COc1cc(O)c(-c2noc3c2C(=O)c2ccccc2C3=O)cc1Cl", "< 4.00"),
    ("Cl.O=C1c2ccncc2C(=O)c2c(-c3ccc(OCCN4CCOCC4)cc3)noc21", "> 8.30"),
    ("O=C1c2ccccc2C(=O)c2c(-c3ccc(O)cc3)noc21", "< 4.00"),
    ("O=C1c2ccccc2C(=O)c2c(/C=C/c3ccccc3)noc21", "< 4.00"),
    ("COc1ccc(-c2noc3c(OC(C)=O)c4ccccc4c(OC(C)=O)c23)cc1", "< 4.00"),
    ("O=C1c2ccccc2C(=O)c2c(-c3ccc4[nH]ccc4c3)noc21", "< 4.00"),
    ("CC(=O)Oc1c2ccccc2c(OC(C)=O)c2c(-c3ccc(F)cc3)noc12", "< 4.00"),
    ("O=C1c2ccncc2C(=O)c2c(-c3ccc(F)cc3)noc21", 5.25),
    ("O=C1c2cccc(O)c2C(=O)c2c(-c3ccncc3)noc21", "< 4.00"),
    ("COc1cc(OC)c(-c2noc3c2C(=O)c2ccccc2C3=O)cc1Cl", "< 4.00"),
]
